assay: Effect of smoking on pharmacokinetics of tasimelteon and metabolites; assay type: in vivo, human; details: human, in vivo, Non-Smokers; read-out: Cmax
READOUT LABEL: Cmax (ng/mL)
Respond with the bare value in ng/mL.

MOL SMILES: CCC(=O)NC[C@@H]1C[C@H]1c1cccc(O)c1CCO
RECORDED NUMBER: 54.9

// below: Cmax requested for another compound
So what does the record say about Cmax for CCC(=O)NC[C@@H]1C[C@H]1c1cccc(O)c1CC(=O)O ?
279

----------
# maps each entry to its half-life
experiment: Effect of smoking on pharmacokinetics of tasimelteon and metabolites; format: in vivo, human; conditions: human, in vivo, Smokers; read-out: t½ (converted)
Respond with the bare value in h.

MOL SMILES: CCC(=O)NC[C@@H]1C[C@H]1c1cccc(O)c1CC(=O)O
half-life, h: 1.15

// below: half-life requested for another compound
So what does the record say about half-life for CCC(=O)NC[C@@H]1C[C@H]1c1cccc(O)c1CCO ?
1.99

----------
test: Effect of smoking on pharmacokinetics of tasimelteon and metabolites; type: in vivo, human; settings: Smokers vs Non-Smokers
READOUT LABEL: Cmax, Geometric Mean Ratio (%)
Respond with the bare value in %.

COMPOUND: CCC(=O)NC[C@@H]1C[C@H]1c1cccc(O)c1CCO [M11]
READOUT UNIT: %
Cmax, Geometric Mean Ratio: 84.50

COMPOUND: CCC(=O)NC[C@@H]1C[C@H]1c1cccc2c1CCO2 (relative stereo) [Tasimelteon]
READOUT UNIT: %
Cmax, Geometric Mean Ratio: 63.98

COMPOUND: CCC(=O)NCC1CC1c1cccc2c1C(O)CO2 (stereo not drawn) [M14]
READOUT UNIT: %
Cmax, Geometric Mean Ratio: 60.17

COMPOUND: CCC(=O)NC[C@@H]1C[C@H]1c1cccc(O)c1CC(=O)O [M9]
READOUT UNIT: %
Cmax, Geometric Mean Ratio: 77.18

COMPOUND: CCC(=O)NCC1CC1c1cccc2c1C(O)CO2 (stereo not drawn) [M12]
READOUT UNIT: %
Cmax, Geometric Mean Ratio: 115.53

// below: Cmax, Geometric Mean Ratio requested for another compound
So what does the record say about Cmax, Geometric Mean Ratio for CCC(=O)NC[C@@H]1C[C@H]1c1cccc2c1CC(O)O2 (stereo partly drawn) [M13] ?
99.49

----------
assay: Effect of smoking on pharmacokinetics of tasimelteon and metabolites; assay type: in vivo, human; settings: Smokers vs Non-Smokers
Label condition met when AUC (inf), Geometric Mean Ratio < 70%; otherwise condition not met.

Observe how each entry below is paired with its result.
COMPOUND: CCC(=O)NCC1CC1c1cccc2c1C(O)CO2 (stereo not drawn) [M14]
CLASS NAME: condition met
//
COMPOUND: CCC(=O)NCC1CC1c1cccc2c1C(O)CO2 (stereo not drawn) [M12]
CLASS NAME: condition not met
//
COMPOUND: CCC(=O)NC[C@@H]1C[C@H]1c1cccc2c1CCO2 (relative stereo) [Tasimelteon]
CLASS NAME: condition met
//
COMPOUND: CCC(=O)NC[C@@H]1C[C@H]1c1cccc(O)c1CCO [M11]
CLASS NAME: condition not met
//
COMPOUND: CCC(=O)NC[C@@H]1C[C@H]1c1cccc(O)c1CC(=O)O [M9]
CLASS NAME: condition not met

Please indicate whether the reported AUC (inf), Geometric Mean Ratio of CCC(=O)NC[C@@H]1C[C@H]1c1cccc2c1CC(O)O2 (stereo partly drawn) [M13] is strictly below 70%.
condition not met

----------
experiment: Pharmacokinetics on co-administration of tasimelteon and fluvoxamine; type: in vivo, human; settings: Day 8 vs Day 1
Label 1 (yes) when Cmax, Geometric Mean Ratio < 70%; otherwise 0 (no).

Observe how each entry below is paired with its result.
COMPOUND: CCC(=O)NC[C@@H]1C[C@H]1c1cccc(O)c1CC(=O)O
CLASS NAME: 1 (yes)
//
COMPOUND: CCC(=O)NCC1CC1c1cccc2c1C(O)CO2 (stereo not drawn) [M12]
CLASS NAME: 0 (no)
//
COMPOUND: CCC(=O)NCC1CC1c1cccc2c1C(O)CO2 (stereo not drawn) [M14]
CLASS NAME: 0 (no)

Here is the next item to consider.
Please indicate whether the reported Cmax, Geometric Mean Ratio of CCC(=O)NC[C@@H]1C[C@H]1c1cccc2c1CCO2 (relative stereo) is strictly below 70%.
0 (no)

----------
# maps each entry to its AUC (inf), Geometric Mean Ratio
test: Pharmacokinetics on co-administration of tasimelteon and fluvoxamine; format: in vivo, human; details: Day 8 vs Day 1
Respond with the bare value in %.

Please review the following examples before continuing.
COMPOUND: CCC(=O)NC[C@@H]1C[C@H]1c1cccc(O)c1CC(=O)O
READOUT LABEL: AUC (inf), Geometric Mean Ratio
READOUT UNIT: %
RECORDED NUMBER: 122.56

COMPOUND: CCC(=O)NCC1CC1c1cccc2c1C(O)CO2 (stereo not drawn) [M12]
READOUT LABEL: AUC (inf), Geometric Mean Ratio
READOUT UNIT: %
RECORDED NUMBER: 274.81

COMPOUND: CCC(=O)NCC1CC1c1cccc2c1C(O)CO2 (stereo not drawn) [M14]
READOUT LABEL: AUC (inf), Geometric Mean Ratio
READOUT UNIT: %
RECORDED NUMBER: 944.73

So what does the record say about AUC (inf), Geometric Mean Ratio for CCC(=O)NC[C@@H]1C[C@H]1c1cccc2c1CCO2 (relative stereo) ?
653.36

So what does the record say about AUC (inf), Geometric Mean Ratio for CCC(=O)NC[C@@H]1C[C@H]1c1cccc(O)c1CCO ?
126.03

So what does the record say about AUC (inf), Geometric Mean Ratio for CCC(=O)NC[C@@H]1C[C@H]1c1cccc2c1CC(O)O2 (stereo partly drawn) ?
125.05

----------
experiment: Pharmacokinetics on co-administration of tasimelteon and fluvoxamine; format: in vivo, human; conditions: both sexes, human, in vivo; Day 1, 5.667 mg tasimelteon alone; read-out: Tmax
READOUT LABEL: Tmax (min)
Respond with the bare value in min.

COMPOUND: CCC(=O)NC[C@@H]1C[C@H]1c1cccc(O)c1CC(=O)O [M9]
Tmax / min: 30

// below: Tmax requested for another compound
So what does the record say about Tmax for CCC(=O)NC[C@@H]1C[C@H]1c1cccc(O)c1CCO [M11] ?
60

----------
# maps each entry to its t½, Geometric Mean Ratio
assay: Pharmacokinetics on co-administration of tasimelteon and fluvoxamine; type: in vivo, human; settings: Day 8 vs Day 1
Respond with the bare value in %.

MOLECULE: CCC(=O)NCC1CC1c1cccc2c1C(O)CO2 (stereo not drawn) [M14]
READOUT UNIT: %
t½, Geometric Mean Ratio: 243.34
--
MOLECULE: CCC(=O)NC[C@@H]1C[C@H]1c1cccc(O)c1CCO
READOUT UNIT: %
t½, Geometric Mean Ratio: 248.35

So what does the record say about t½, Geometric Mean Ratio for CCC(=O)NC[C@@H]1C[C@H]1c1cccc2c1CC(O)O2 (stereo partly drawn) ?
349.81

So what does the record say about t½, Geometric Mean Ratio for CCC(=O)NC[C@@H]1C[C@H]1c1cccc2c1CCO2 (relative stereo) ?
211.82

So what does the record say about t½, Geometric Mean Ratio for CCC(=O)NCC1CC1c1cccc2c1C(O)CO2 (stereo not drawn) [M12] ?
241.02

So what does the record say about t½, Geometric Mean Ratio for CCC(=O)NC[C@@H]1C[C@H]1c1cccc(O)c1CC(=O)O ?
328.02

----------
assay: Effect of smoking on pharmacokinetics of tasimelteon and metabolites; format: in vivo, human; conditions: Smokers vs Non-Smokers
READOUT LABEL: t½, Geometric Mean Ratio (%)
Respond with the bare value in %.

COMPOUND: CCC(=O)NCC1CC1c1cccc2c1C(O)CO2 (stereo not drawn) [M14]
t½, Geometric Mean Ratio [%]: 65.09
//
COMPOUND: CCC(=O)NC[C@@H]1C[C@H]1c1cccc(O)c1CC(=O)O [M9]
t½, Geometric Mean Ratio [%]: 85.40
//
COMPOUND: CCC(=O)NCC1CC1c1cccc2c1C(O)CO2 (stereo not drawn) [M12]
t½, Geometric Mean Ratio [%]: 73.31
//
COMPOUND: CCC(=O)NC[C@@H]1C[C@H]1c1cccc2c1CC(O)O2 (stereo partly drawn) [M13]
t½, Geometric Mean Ratio [%]: 77.51
//
COMPOUND: CCC(=O)NC[C@@H]1C[C@H]1c1cccc(O)c1CCO [M11]
t½, Geometric Mean Ratio [%]: 94.13

So what does the record say about t½, Geometric Mean Ratio for CCC(=O)NC[C@@H]1C[C@H]1c1cccc2c1CCO2 (relative stereo) [Tasimelteon] ?
86.84

----------
assay: Effect of smoking on pharmacokinetics of tasimelteon and metabolites; format: in vivo, human; conditions: human, in vivo, Non-Smokers; read-out: t½ (converted)
# maps each entry to its half-life
Respond with the bare value in min.

MOLECULE: CCC(=O)NC[C@@H]1C[C@H]1c1cccc(O)c1CC(=O)O [M9]
READOUT UNIT: min
half-life: 82.8

// below: half-life requested for another molecule
So what does the record say about half-life for CCC(=O)NC[C@@H]1C[C@H]1c1cccc(O)c1CCO [M11] ?
128
